Origin of the recorded values: PubChem BioAssay

Below: a set of entries, each annotated with reported composite z-score.
Biological target: Torsin-1A (Homo sapiens) (UniProt O14656)
Sequence (O14656 whole entry, looked up): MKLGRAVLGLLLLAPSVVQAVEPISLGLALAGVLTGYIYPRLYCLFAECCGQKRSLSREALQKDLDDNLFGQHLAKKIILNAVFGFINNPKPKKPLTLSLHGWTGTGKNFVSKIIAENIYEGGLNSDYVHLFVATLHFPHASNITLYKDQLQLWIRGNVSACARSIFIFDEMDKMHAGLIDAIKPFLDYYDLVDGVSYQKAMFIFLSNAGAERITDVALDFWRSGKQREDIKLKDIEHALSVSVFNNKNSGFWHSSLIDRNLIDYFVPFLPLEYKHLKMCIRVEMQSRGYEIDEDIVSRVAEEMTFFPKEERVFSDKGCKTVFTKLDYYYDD
Assay: small-molecule binders of mutant TOR1A in lysate, primary screen, cell lysate, small-molecule microarray, COS7 lysate, 635/667 nm fluorescence (AID 1150);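 note: score pools 667 nm emission and signal to noise measuring lysate protein binding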
Details: COS7 hTOR1A mutant lysate, 635 nm fluorescence, higher = more signal

Solved entries (count: 5):
- COMPOUND: "O=C1C2=CC[C@H]3C(=O)N(Cc4ccc5c(c4)OCO5)C(=O)[C@H]3[C@H]2[C@H](O)[C@@H]2O[C@H]12"
  composite z-score: 0.677
- COMPOUND: "CN(C)CCCNC(=O)[C@@H]1c2ccccc2C(=O)N(Cc2cc(F)cc(C(F)(F)F)c2)[C@H]1c1ccc(CO)cc1"
  composite z-score: -0.348
- COMPOUND: "Cc1cc2c(nc1C)CCCN2CC(O)CN1CCN(C)CC1 (stereo unspecified)"
  composite z-score: 0.528
- COMPOUND: "O=C1[C@H]2[C@H]3[C@H](O)[C@H](O)CC(=NO[C@@H]4O[C@H](CO)[C@@H](O)[C@H](O)[C@H]4O)[C@H]3CC[C@H]2C(=O)N1Cc1ccccc1"
  composite z-score: 0.0309
- COMPOUND: "O=C1O[C@@H](c2ccccc2)[C@@H](c2ccccc2)N2[C@@H](c3ccc(O)cc3)[C@]3(C(=O)Nc4ccccc43)[C@@H](C(=O)O)[C@H]12"
  composite z-score: 0.548

Tested on Torsin-1A (Homo sapiens) (UniProt O14656): CCOC(=O)NN=C1C[C@@H](O)[C@@H](O)[C@@H]2[C@@H]3C(=O)N(C[C@@H]4CCCO4)C(=O)[C@@H]3CC[C@@H]12 . Observed composite z-score: 0.76

Tested on Torsin-1A (Homo sapiens) (UniProt O14656): CC(C)c1ccc(NN2C(C(O)c3ccc4c(c3)OCO4)C=CC3C(=O)N(c4ccccc4)C(=O)C32)cc1 (stereo unspecified) . Observed composite z-score: 1.04

----------
Test: CREB reporter modulators without forskolin, primary screen, cell-based, PC12, CRE-LacZ reporter, unstimulated (AID 1145)
Details: no forskolin, luminescence, 4.5 h, higher = more signal, called active from +8 up or from −8 down
MEASUREMENT_KIND: z-score
Form: value (number only, do not type unit).

- COMPOUND: "CC(=O)O[C@H]1C2=C(C(=O)[C@@H]3O[C@@H]31)[C@H]1C(C)O[C@@H]2[C@@]23C(=O)[C@@H]4O[C@@H]4[C@@H](O)C2=CO[C@H](C)[C@@H]13 (stereo not given in full)"
  MEASUREMENT_KIND: "z-score"
  VALUE_OBSERVED: 0.108
- COMPOUND: "CC1(C)OCC(C(O)C2=CCCCC2=O)CO1 (stereo not given)"
  MEASUREMENT_KIND: "z-score"
  VALUE_OBSERVED: -0.431
- COMPOUND: "CCOC(=O)[C@H](Cc1ccccc1)NC(=O)CCC1CC(OC(=O)NCc2ccc3c(c2)OCO3)CC2(CCCC(COC(=O)NCc3cccc(C(F)(F)F)c3)O2)O1 (stereo not given in full)"
  MEASUREMENT_KIND: "z-score"
  VALUE_OBSERVED: -0.618
- COMPOUND: "CCOC(=O)C1=CC[C@H]2C(=O)N(CC)C(=O)[C@@H]12"
  MEASUREMENT_KIND: "z-score"
  VALUE_OBSERVED: -0.228
- COMPOUND: "N#Cc1ccc(NN2C(C(O)c3cccc4ccccc34)C=CC3C(=O)N(c4ccccc4)C(=O)C32)cc1 (stereo not given)"
  MEASUREMENT_KIND: "z-score"
  VALUE_OBSERVED: -0.708

Sample CO[C@H]1COC(=O)CC=C[C@H](C)[C@@H](NS(=O)(=O)c2ccc(C)cc2)COC(=O)CC=C[C@@H]1C ; z-score observed: -0.971

Sample COC(=O)[C@@H]1CC[C@H](C)[C@@H](c2ccc(C)cc2)N1C(=O)c1ccc(C=NOC[C@@H](O)COCc2ccco2)cc1 ; z-score observed: 5.89

Sample CCOC(=O)NN=C1C[C@@H](O)[C@@H](O)[C@@H]2[C@@H]3C(=O)N(C[C@@H]4CCCO4)C(=O)[C@@H]3CC[C@@H]12 ; z-score observed: -0.658

Sample CO[C@@H]1COC(=O)CC=C[C@@H](C)[C@H](OC)COC(=O)[C@H](COCc2ccccc2)NC(=O)CC=C[C@H]1C ; z-score observed: 0.0664

Sample Cc1ccc(S[C@]2(C(=O)O)CC(=O)N(Cc3ccccc3)[C@@H]2c2ccc(CO)cc2I)cc1 ; z-score observed: 1.97

Sample Cn1cccc1C(O)C1C=CC2C(=O)NC(=O)C2N1Nc1ccccn1 (stereo not given) ; z-score observed: -0.326

Sample O=C1NC(=O)C2C1C=CC(C(O)Cc1ccccc1)N2Nc1ccccn1 (stereo not given) ; z-score observed: 0.0603

Sample CC(C)[Si]1(C(C)C)O[C@@H](c2ccccc2)c2cc(C3CC3)nc(-c3ccccc3)c21 ; z-score observed: -0.258

Sample CCOC(=O)[C@H](Cc1ccccc1)NC(=O)CCC1CC(OC(=O)NCc2ccc3c(c2)OCO3)CC2(CCCC(COC(=O)NCC3CCCCC3)O2)O1 (stereo not given in full) ; z-score observed: -0.613

Sample COC(=O)C1(C)C=C2C(=C(c3ccccc3)C(=O)C2C)CN1 (stereo not given) ; z-score observed: 0.593

----------
Test: A549 lung cancer cell viability effects, profiling panel, resazurin fluorescence, 24 h, PK04 Diversity Set (AID 1171); note: test concentration not given here
Conditions: higher = more signal, called active from +8 up or from −8 down
The source made the active and inactive calls.
Below: a set of entries, each annotated with reported z-score.

Solved entries (count: 8):
- COMPOUND: "CCCCC(=C=CC[C@H](O)c1ccccc1OCCO)C[C@H](O)COCc1ccccc1"
  z-score: "0.189 (inactive)"
- COMPOUND: "CCCC[C@@H](O)C1=C(C)C[C@H]2C(=O)N(Cc3ccccc3)C(=O)[C@H]2[C@H]1CO"
  z-score: "0.453 (inactive)"
- COMPOUND: "O=C1[C@H]2[C@H]3[C@H](O)[C@H](O)CC(=NOCc4ccccc4)[C@H]3CC[C@H]2C(=O)N1c1cccc(Oc2ccccc2)c1"
  z-score: "0.188 (inactive)"
- COMPOUND: "CC1CC/C=C\\[C@H]2OC34C=CCN(C(C)C)C(=O)[C@H]3N(CCCO)C(=O)[C@@H]4C2C(=O)O1 (stereo partly drawn)"
  z-score: "0.385 (inactive)"
- COMPOUND: "CCOC(=O)C[C@H]1[C@H](OC(=O)c2ccc(C(=O)c3ccccc3)cc2)[C@@H](NC(=O)c2ccc(-c3ccccc3)cc2)c2cc(OCCCO)ccc2N1C(=O)c1ccc2ccccc2n1"
  z-score: "0.336 (inactive)"
- COMPOUND: "COC(=O)CC=C[C@H](C)[C@H](CO)NS(=O)(=O)c1ccc(C)cc1"
  z-score: "-0.711 (inactive)"
- COMPOUND: "CCN1C(=O)[C@H]2[C@H]3[C@H](O)C=CC(=O)[C@@H]3CC[C@H]2C1=O"
  z-score: "0.459 (inactive)"
- COMPOUND: "CC(CCC(=O)OC[C@H]1O[C@H](C#Cc2ccccc2)C=C[C@@H]1Oc1ccc(C)cc1)=NO[C@@H](C)c1cn([C@H](CO)Cc2ccccc2)nn1"
  z-score: "0.555 (inactive)"

Sample COc1ccc([Si](C)(C)[C@H]2[C@H](CC(=O)N3CCC[C@H]3CO)O[C@@]3(C(=O)N(Cc4cccc(N5C(=O)COc6ccccc65)c4)c4ccccc43)[C@@H]2C)cc1 ; z-score observed: -0.343 (inactive)

Sample CCCCc1nc2c(c3c1C[C@H](C)OC3)CN(CCC(C)C)CC2 ; z-score observed: 0.6 (inactive)

Sample COC(=O)[C@@H]1N=C(c2ccc(OCCCO)cc2)O[C@@H]1c1ccccc1N=[N+]=[N-] ; z-score observed: 0.4 (inactive)

Sample CC(CCN1CCc2nc(-c3ccccc3)c(-c3ccccc3)cc2C1)=NOC(C)CN1CCCCc2nc(C)c(C)cc21 (stereo not drawn) ; z-score observed: 0.935 (inactive)

Sample Cc1ccc(S[C@]2(C(=O)O)CC(=O)N(Cc3ccccc3)[C@@H]2c2ccc(CO)cc2I)cc1 ; z-score observed: 0.682 (inactive)

Sample COCCCNC(=O)[C@]1(Cc2ccccc2)N=C(c2ccc(OCCCO)cc2)O[C@@H]1c1ccccc1 ; z-score observed: 2.67 (inactive)

Sample COCCCNC(=O)[C@@]1(Sc2ccc(C)cc2)CC(=O)N(Cc2ccccc2)[C@@H]1c1ccc(CO)cc1I ; z-score observed: 0.491 (inactive)

Sample COc1ccc([Si](C)(C)[C@H]2[C@H](CCO)O[C@@]3(C(=O)N(Cc4cccc(NC(=O)[C@H](C)O)c4)c4ccccc43)[C@@H]2C)cc1 ; z-score observed: -4.28 (inactive)

Sample O=C1C[C@]2(c3ccc([N+](=O)[O-])cc3)C(=O)N(CCN3CCOCC3)c3cc(CO)ccc3[C@H]2N1CC12CC3CC(CC(C3)C1)C2 ; z-score observed: 0.723 (inactive)

Sample CC(CCN1CCCCc2nc(C)c(C)cc21)=NOC(C)CN1CCCCc2nc(C)c(C)cc21 (stereo not drawn) ; z-score observed: 0.661 (inactive)
